Numbers sourced from patent US20180291081A1.

Reported koff by item:
TARGET_DESC: T1, PD-1 molecule (refolded, purified and biotinylated PD-1 of Example 2) (UniProt Q15116 33-150, biotinylated with BirA enzyme (site not stated))
T1 construct: also called Programmed Death-1
ASSAY_NOTES: SPR (BIAcore T200), single-cycle kinetics; biotinylated PD-1 captured via streptavidin, PDL-1 variant in solution
Provide only the numeric value, understood in s⁻¹.

Observe how each entry below is paired with its result.
{"BINDER": "high affinity PDL-1 molecule L3D9 (ligand) FTVTVPKDLYVVEYGSNMTIECKFPVEKQLDLAALNVFWFMEDKNIIQFVHGEEDLKVQHSSYRQRARLLKDQLSLGNAALQITDVKLQDAGVYTCLIGYEGADYKRITVKVNAPYNKINQRILVVDPVTSEHELTCQAEGYPKAEVIWTSSDHQVLSGKTTTTNSKREEKLFNVTSTLRINTTTNEIFYCTFRRLDPEENHTAELVIPEL", "koff [s⁻¹]": 0.0871}
{"BINDER": "high affinity PDL-1 molecule L3C7c (ligand) WTVTVPKDLYVVEYGSNMTIECKFPVEKQLDLAALEVHWFMEDKNIFSFVHGEEDLKVQHSSYRQRARLLKDQLSLGNAALQITDVKLQDAGVYTCLIGYKGADYKRITVKVNAPYNKINQRILVVDPVTSEHELTCQAEGYPKAEVIWTSSDHQVLSGKTTTTNSKREEKLFNVTSTLRINTTTNEIFYCTFRRLDPEENHTAELVIPEL", "koff [s⁻¹]": 0.0155}

Proceed to the following item.
Query: Look at this binder and give its reported koff. high affinity PDL-1 molecule L1F2 (ligand) FTVTVPKDLYVVEYGSNMTIECKFPVEKQLDLAALQVNWLMEDKNIIQFVHGEEDLKVQHSSYRQRARLLKDQLSLGNAALQITDVKLQDAGVYLCLISYGGADYKRITVKVNAPYNKINQRILVVDPVTSEHELTCQAEGYPKAEVIWTSSDHQVLSGKTTTTNSKREEKLFNVTSTLRINTTTNEIFYCTFRRLDPEENHTAELVIPEL
Response: 0.104
